Hello, the source for this data is patent US8314103B2, in case you need it.

Molecular target: PI3Kα kinase (Homo sapiens, UniProt P42336)
Sequence (P42336 whole entry): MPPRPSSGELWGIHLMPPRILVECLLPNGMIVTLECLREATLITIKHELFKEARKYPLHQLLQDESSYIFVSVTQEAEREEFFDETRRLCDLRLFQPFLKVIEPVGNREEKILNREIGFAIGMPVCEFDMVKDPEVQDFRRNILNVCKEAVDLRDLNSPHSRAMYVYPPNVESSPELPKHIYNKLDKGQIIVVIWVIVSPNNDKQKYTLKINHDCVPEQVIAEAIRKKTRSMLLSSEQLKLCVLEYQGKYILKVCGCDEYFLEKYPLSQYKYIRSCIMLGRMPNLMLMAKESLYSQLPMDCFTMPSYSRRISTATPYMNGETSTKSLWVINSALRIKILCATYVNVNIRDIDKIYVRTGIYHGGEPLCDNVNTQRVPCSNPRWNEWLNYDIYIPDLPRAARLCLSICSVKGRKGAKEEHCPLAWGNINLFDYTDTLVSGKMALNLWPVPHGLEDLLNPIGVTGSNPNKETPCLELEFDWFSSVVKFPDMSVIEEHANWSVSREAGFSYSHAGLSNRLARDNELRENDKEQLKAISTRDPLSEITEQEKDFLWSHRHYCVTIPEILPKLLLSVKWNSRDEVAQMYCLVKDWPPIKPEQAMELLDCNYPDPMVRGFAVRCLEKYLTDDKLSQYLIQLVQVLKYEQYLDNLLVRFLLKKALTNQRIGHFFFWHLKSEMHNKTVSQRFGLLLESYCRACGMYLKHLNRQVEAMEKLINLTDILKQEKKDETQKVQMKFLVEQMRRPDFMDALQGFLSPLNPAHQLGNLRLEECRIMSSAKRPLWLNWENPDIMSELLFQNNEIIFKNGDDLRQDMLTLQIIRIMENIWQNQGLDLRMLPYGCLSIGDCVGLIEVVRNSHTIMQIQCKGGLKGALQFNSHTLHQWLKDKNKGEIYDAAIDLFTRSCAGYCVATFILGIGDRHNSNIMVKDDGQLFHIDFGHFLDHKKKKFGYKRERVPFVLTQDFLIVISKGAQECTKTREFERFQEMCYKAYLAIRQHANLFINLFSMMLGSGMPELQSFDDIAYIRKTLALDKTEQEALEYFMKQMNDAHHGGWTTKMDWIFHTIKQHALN
Sequence (P27986 whole entry partner): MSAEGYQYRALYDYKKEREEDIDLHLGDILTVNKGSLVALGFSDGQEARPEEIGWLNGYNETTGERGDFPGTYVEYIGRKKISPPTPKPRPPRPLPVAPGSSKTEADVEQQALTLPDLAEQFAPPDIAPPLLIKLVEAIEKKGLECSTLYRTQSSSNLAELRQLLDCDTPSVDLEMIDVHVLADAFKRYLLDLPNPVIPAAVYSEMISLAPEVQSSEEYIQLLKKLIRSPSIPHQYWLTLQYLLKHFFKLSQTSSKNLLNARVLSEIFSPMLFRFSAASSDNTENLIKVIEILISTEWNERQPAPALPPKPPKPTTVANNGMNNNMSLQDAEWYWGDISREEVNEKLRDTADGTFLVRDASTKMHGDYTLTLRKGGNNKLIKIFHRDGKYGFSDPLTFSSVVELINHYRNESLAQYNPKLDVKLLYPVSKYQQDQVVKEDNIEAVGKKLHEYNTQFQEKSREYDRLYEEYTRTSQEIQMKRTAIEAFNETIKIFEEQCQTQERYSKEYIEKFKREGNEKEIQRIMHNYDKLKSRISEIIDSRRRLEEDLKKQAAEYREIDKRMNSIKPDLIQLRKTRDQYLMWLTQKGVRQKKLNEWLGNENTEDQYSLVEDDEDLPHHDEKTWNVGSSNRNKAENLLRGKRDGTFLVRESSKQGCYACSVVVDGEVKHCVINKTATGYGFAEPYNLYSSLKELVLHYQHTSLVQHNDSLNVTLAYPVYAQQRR

given.smiles: COc1cc(C(F)(F)F)nc(-c2ccc(NC(=O)CCl)cn2)n1
IC50 (nM): 1000

====

Assay: Cytotoxicity assay (MTS)
Assay type: cell-based
Details: human, panel of HIF over expressing cell lines, average across a panel of HIF overexpressing cell lines, read-out: Cytotoxic Potential (MTS/PI), average IC50
Experimental: Cytotoxicity and Anti-proliferative Assay Cytotoxic potential of compounds of the present invention was tested using various HIF over expressing cell lines (source and culture conditions as described in Table-1 herein above). […] After 4 hours incubation, the absorbance of the fluid in each well was determined at 490 nm using a microwell plate spectrophotometer reader (Molecular Devices, Sunnyvale, Calif., USA). […]
API: label(entry) gives Criterion met if the entry's IC50 at 48 h is strictly smaller than 2 µM; on equality or larger values it gives Criterion not met.

compound: O=C(CCl)Nc1ccc(-c2nc(Cl)cc(C(F)(F)F)n2)nc1
assigned.class: Criterion met
//
compound: O=C(CCl)Nc1ccc(-c2noc(C(F)(F)F)n2)nc1
assigned.class: Criterion not met
//
compound: Cc1nc(-c2ccc(NC(=O)CCl)cn2)no1
assigned.class: Criterion not met
//
compound: COc1cc(C(F)(F)F)nc(-c2ccc(NC(=O)CCl)cn2)n1
assigned.class: Criterion not met
//
compound: O=C(CCl)Nc1ccc(-c2noc(C(F)(F)Cl)n2)nc1 [Example 41a]
assigned.class: Criterion not met
//
compound: NC(=NO)c1ccc(NC(=O)CCl)cn1
assigned.class: Criterion not met
//
compound: C=CCOc1nc(-c2ccc(NC(=O)CCl)cn2)nc(C)c1CC
assigned.class: Criterion met

====

Molecular target: mTOR (Homo sapiens, UniProt P42345)
Construct: endogenous in cells
Assay: Cell based mTOR assay
Conditions: IGF-I induced AKT/p70S6K1 phosphorylation; read-out: Inhibition of mTOR (cell-based): IC50
pIC50: −log10 of the molar value.

given.smiles: C=CCOc1cc(C(F)(F)F)nc(-c2ccc(NC(=O)CCl)cn2)n1
pIC50: 5.30
//
given.smiles: COc1cc(C(F)(F)F)nc(-c2ccc(NC(=O)CCl)cn2)n1
pIC50: 5.30
//
given.smiles: NC(=NO)c1ccc(NC(=O)CCl)cn1
pIC50: 5.30
//
given.smiles: C=CCOc1nc(-c2ccc(NC(=O)CCl)cn2)nc(C)c1CC
pIC50: 5.30
